Answer each item with its documented %Inh.
Tested on: SBK1;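 note: KINOMEscan kinase panel screen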
condition-info: concentration: 1 μM, replicates: in singlicate; n = 1
Numbers only, in %.

Parameter requested: %Inh. Apply to each item below.
1. COC(=O)c1cccc(NC(=O)NC2CCN(c3ccnc(Nc4ccc(F)cc4)n3)C2)c1 (centres unmarked)
2. CC(=O)c1c(C)c2cnc(Nc3ccc(N4CCNCC4)cn3)nc2n(C2CCCC2)c1=O
3. c1ccc(-c2ccnc3[nH]ccc23)cc1
4. COc1cc2ncnc(Nc3cccc(Br)c3)c2cc1OC.Cl
5. COC(=O)c1cccc(NC(=O)NC2CCN(c3ccnc(Nc4ccc(OC)cc4)n3)C2)c1 (centres unmarked)

1. 17
2. 0
3. 17
4. 16
5. 0
